- Target Or System: hemagglutinin (HA) of influenza A/Solomon Islands/3/06 H1N1 (Influenza A virus A/Solomon …)
- Method: cell-based or functional assay
Label fulfilled when % Neutralization is strictly below 80%; at or above that, label not fulfilled.

Dear colleague, could you confirm whether % Neutralization of TCN-551 (5243_D01) (antibody, V domains shown) VH: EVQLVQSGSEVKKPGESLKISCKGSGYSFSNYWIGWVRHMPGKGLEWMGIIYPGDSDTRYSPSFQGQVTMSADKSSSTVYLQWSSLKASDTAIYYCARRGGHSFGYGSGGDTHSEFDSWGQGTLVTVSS VL: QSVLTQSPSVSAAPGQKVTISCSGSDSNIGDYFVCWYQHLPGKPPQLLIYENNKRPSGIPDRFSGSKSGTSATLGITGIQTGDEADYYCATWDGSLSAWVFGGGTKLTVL falls below 80%? Thanks.
not fulfilled

What do you get for TCN-539 (5056_A08) (antibody, V domains shown) VH: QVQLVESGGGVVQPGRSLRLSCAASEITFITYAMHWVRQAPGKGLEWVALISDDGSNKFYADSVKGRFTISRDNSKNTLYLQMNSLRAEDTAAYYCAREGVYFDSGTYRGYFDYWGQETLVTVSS VL: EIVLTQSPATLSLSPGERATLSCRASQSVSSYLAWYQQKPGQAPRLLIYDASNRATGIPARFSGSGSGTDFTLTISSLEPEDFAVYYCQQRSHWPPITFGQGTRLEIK ?
not fulfilled

What do you get for TCN-526 (5084_C17) (antibody, V domains shown) VH: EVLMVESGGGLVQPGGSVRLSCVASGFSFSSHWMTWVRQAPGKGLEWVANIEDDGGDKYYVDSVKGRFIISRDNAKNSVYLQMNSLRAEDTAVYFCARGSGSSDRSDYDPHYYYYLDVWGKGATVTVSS VL: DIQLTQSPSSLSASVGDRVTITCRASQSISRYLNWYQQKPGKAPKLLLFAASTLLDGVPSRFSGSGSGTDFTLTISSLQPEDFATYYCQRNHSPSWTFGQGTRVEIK ?
fulfilled

What do you get for TCN-532 (5262_H18) (antibody, V domains shown) VH: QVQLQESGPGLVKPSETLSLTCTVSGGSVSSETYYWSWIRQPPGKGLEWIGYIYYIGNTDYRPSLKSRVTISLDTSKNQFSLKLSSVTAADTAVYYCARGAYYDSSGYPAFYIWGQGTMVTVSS VL: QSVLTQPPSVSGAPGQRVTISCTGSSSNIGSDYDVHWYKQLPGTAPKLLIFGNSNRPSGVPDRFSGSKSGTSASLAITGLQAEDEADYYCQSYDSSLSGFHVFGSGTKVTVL ?
fulfilled
